This collection of values is drawn from patent US20260258083A1.

// fold-kon lookup, one value per entry
# target_or_test_system: T1, FLT3xCD3 TCE SEQ ID NO 93
# T1 construct: Single-chain scFv-scFv-scFc T cell engager; also called FLT3×CD3ε TCE; FLT3_7 A8xCD3-scFc Bispecific HLE molecule
# test_method_notes: Table 5, ratio to a reference peptide that the table does not name
# Set-up: reference not given here
Where no end group is shown, it is not given here. Side-chain parts run from the residue outwards. [ ]: non-standard residue; d: D form. pGlu = O=C1CC[C@@H](C(=O)O)N1; disulfide = not defined here
observation_type: fold-kon (fold)

>>> experimental_result("QDGNEEMGKGMEENGDQC(4‑arm PEG 20 kDa) (also: four peptides on one 4-arm PEG, Peptide-PEG conjugate with four peptides on one PEG; also called CD3ε PepPOL, v1 (20 kDa); 4-arm 20 kDa PepPOL conjugate) [(QDGNEEMGKGMEENGDQC)4 -PEG(20 kDa)]")
1.14
>>> experimental_result("QDGNEEMGQDGNEEMG [QDGNEEMG-QDGNEEMG]")
0.77
>>> experimental_result("[pGlu]DGNEEMGKGMEENGDQC([disulfide-4‑arm PEG 20 kDa]) (reading uncertain; also: four peptides on one 4-arm PEG, printed as pGlu-DGNEEMGKGMEENGDQC, also called CD3ε PepPOL, v2; Pep-PEG v2) [(pGlu-DGNEEMGKGMEENGDQC)4 -PEG(20 kDa)]")
16.2
>>> experimental_result("QDGNEEMGGMEENGDQ (how the reversed half is joined is not explained) [QDGNEEMG-GMEENGDQ]")
0.69
>>> experimental_result("QDGNEEMGKQDGNEEMG [QDGNEEMG-K-QDGNEEMG]")
0.56
